Provide the recorded solubility at 24 h for the entries that follow.
assay.protocol: Solubility in neat solvents, shake-flask with spectrophotometric determination
Assay type: physicochemical
study.conditions: 25 °C, organic solvent or mixture, thermodynamic from solid; neat NMP, 298.1 K
Number in mg/mL, nothing else.

Reported solubility at 24 h for `O=C1Nc2ccc([N+](=O)[O-])cc2C1=NNC(=O)c1cccc([N+](=O)[O-])c1` was 8.99

Reported solubility at 24 h for `O=C1Nc2ccc([N+](=O)[O-])cc2C1=NNC(=O)c1ccccc1C(F)(F)F` was 265

Reported solubility at 24 h for `Nc1cccc(C(=O)NN=C2C(=O)Nc3ccc([N+](=O)[O-])cc32)c1` was 32.7
